So I've got pIC50 readings for ATP-binding cassette sub-family C member 4 (Homo sapiens, UniProt O15439), take a look.
Units for pIC50: none; it is -log10 of a concentration expressed in mol/L.

INPUT: Look up pIC50 with ATP-binding cassette sub-family C member 4 (Homo sapiens, UniProt O15439) for this compound: O=[N+]([O-])c1ccc(CSc2ncnc3c2ncn3[C@@H]2O[C@H](CO)[C@@H](O)[C@H]2O)cc1 [NITROBENZYLMERCAPTOPURINE RIBONUCLEOSIDE]
Sequence (O15439 whole entry): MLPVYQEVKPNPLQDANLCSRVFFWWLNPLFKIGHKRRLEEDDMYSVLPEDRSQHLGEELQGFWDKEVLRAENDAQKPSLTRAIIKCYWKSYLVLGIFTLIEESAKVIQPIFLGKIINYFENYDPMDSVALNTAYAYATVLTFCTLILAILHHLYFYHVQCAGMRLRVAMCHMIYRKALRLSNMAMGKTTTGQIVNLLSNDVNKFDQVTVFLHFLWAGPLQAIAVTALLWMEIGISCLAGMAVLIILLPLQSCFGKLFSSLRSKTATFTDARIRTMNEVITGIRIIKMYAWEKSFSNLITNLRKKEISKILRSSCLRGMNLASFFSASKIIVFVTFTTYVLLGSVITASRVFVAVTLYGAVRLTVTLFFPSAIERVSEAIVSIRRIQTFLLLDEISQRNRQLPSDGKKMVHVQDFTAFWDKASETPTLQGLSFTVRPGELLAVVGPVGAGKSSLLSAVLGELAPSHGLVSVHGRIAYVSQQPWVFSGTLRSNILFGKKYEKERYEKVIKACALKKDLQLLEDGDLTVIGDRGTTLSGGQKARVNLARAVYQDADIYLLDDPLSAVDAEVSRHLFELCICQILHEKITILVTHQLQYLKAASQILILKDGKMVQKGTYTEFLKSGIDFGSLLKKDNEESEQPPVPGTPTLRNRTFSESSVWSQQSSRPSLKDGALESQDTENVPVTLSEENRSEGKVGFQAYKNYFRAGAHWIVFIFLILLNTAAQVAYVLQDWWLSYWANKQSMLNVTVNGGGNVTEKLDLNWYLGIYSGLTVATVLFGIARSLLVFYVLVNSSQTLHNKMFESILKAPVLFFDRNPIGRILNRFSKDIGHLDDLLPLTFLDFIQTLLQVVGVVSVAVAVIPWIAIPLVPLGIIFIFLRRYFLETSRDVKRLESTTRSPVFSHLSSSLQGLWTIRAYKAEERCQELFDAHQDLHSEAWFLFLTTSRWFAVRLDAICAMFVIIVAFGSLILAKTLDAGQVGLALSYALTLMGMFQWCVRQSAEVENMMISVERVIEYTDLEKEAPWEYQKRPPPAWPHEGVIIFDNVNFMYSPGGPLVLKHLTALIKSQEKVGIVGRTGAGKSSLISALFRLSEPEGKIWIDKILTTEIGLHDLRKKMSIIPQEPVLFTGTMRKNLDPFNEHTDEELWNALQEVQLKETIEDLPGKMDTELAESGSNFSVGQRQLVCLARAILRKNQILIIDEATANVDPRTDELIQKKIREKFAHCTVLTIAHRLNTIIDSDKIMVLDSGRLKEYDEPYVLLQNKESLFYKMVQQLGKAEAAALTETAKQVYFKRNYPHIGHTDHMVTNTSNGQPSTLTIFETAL
OUTPUT: 4.12

INPUT: Field: pIC50 (ATP-binding cassette sub-family C member 4 (Homo sapiens, UniProt O15439)). Entry: COc1cc(C(=O)OCCCN2CCCN(CCCOC(=O)c3cc(OC)c(OC)c(OC)c3)CC2)cc(OC)c1OC [DILAZEP]
OUTPUT: 4.70

Could you now consider this next compound?
INPUT: Provide value of pIC50 for this record tested with ATP-binding cassette sub-family C member 4 (Homo sapiens, UniProt O15439): COc1cc2c(cc1OC)-c1c/c(=N\c3c(C)cc(C)cc3C)n(C)c(=O)n1CC2 [TREQUINSIN]
OUTPUT: 5.00
